- System Under Test: H5 hemagglutinin (HA) of H5N1 influenza A virus, strain not stated (influenza A virus (H5N1), strain not stated)
- Method Notes: cross-inhibition of binding to HA; competitor: FLD20.19
Metric Name: Inhibition of binding (%)
Express it in %; write the number only.

Example entries and their recorded answers appear below.
| Binder | Units | Recorded Value |
| --- | --- | --- |
| FLD132 (antibody, V domains shown) VH: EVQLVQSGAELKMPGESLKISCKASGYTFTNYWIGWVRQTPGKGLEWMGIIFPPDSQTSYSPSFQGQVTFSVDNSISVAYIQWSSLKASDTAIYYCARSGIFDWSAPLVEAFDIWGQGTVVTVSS VL: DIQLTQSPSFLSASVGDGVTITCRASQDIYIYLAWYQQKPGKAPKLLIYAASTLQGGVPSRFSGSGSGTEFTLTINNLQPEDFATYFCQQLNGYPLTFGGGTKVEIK | % | 0 |
| FLA3.14 (antibody, V domains shown) VH: EVQLVQSGAEVKKPGESLKISCQASGYSFTSRWIGWVRQMPGKGLEWVGFIYPSDSDVRYSPSFRGQVTISADKSISTAYLQWSSLKASDTAMYFCARLGGNKDYGDYLWYFDLWGRGALVTVSS VL: EIVMTQSPDTLSVSPGERATLSCRASQSVNRRLAWYQQKPGQAPRLLIHDASTRATGIPARFSGSGSGTEFTLTISSLQSEDFAVYYCQQYDNWLSFGQGTRLEIK | % | 0 |
| FLD129 (antibody, V domains shown) VH: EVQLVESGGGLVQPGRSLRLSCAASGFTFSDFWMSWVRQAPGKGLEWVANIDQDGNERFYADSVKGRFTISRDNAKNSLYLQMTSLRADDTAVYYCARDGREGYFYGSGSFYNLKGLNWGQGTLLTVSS VL: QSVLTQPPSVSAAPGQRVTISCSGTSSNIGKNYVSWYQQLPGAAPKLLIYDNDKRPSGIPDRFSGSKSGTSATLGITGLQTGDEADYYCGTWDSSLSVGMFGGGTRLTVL | % | 100 |
| FLD122 (antibody, V domains shown) VH: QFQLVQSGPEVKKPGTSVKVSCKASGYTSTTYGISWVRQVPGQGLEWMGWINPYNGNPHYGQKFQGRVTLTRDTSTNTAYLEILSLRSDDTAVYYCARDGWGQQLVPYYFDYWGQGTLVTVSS VL: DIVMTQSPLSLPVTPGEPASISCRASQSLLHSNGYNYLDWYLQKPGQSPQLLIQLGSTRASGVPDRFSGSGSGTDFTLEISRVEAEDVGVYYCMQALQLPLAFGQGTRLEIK | % | 100 |

Turning now to a further record.
Qu. Which Inhibition of binding (%) is reported for this binder? FLD93 (antibody, V domains shown) VH: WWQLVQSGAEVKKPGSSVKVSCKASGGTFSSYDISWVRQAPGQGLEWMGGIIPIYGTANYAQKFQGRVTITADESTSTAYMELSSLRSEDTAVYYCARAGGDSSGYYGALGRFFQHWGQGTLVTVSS VL: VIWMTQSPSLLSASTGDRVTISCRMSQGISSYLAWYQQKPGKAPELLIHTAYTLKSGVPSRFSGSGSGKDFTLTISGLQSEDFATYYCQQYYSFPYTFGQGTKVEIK
Ans. 100
